# protocol summary: self-splicing fitness, log relative to wild type (ln ratio); higher = more splicing; Tetrahymena group I intron in knt gene, E. coli kanamycin selection, DiMSum; sequences stand for … in CUCUCU…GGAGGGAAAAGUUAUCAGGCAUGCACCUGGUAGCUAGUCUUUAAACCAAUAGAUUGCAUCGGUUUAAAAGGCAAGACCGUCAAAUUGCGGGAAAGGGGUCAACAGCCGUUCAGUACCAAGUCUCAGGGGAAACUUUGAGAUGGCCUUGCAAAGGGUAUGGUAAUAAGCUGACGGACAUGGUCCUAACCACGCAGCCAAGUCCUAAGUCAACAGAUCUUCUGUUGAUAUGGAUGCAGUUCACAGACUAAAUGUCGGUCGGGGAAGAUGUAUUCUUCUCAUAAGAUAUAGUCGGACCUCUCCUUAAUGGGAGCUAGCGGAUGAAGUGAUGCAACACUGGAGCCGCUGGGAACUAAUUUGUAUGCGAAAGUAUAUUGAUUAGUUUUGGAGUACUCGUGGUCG;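 further: selection with 25 µg/mL kanamycin versus none on LB agar overnight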
# run parameters: 30 °C
Would you mind telling me the reported self-splicing fitness (ln) of each entry?

Record `GCCUAGCAAUAUUACGAGGU` . Reported self-splicing fitness (ln): -3.07

Record `CGCCAGCAAUAUUACGUUGU` . Reported self-splicing fitness (ln): -3.62

Record `CUGCAGCAAUAUUACGGUUG` . Reported self-splicing fitness (ln): -1.02

Record `UUAUAGCAAUAUUACGUUGG` . Reported self-splicing fitness (ln): -2.91

Record `AACGAGCAAUAUUACGGCAU` . Reported self-splicing fitness (ln): -1.91

Record `AAAGAGCAAUAUUACGCAUA` . Reported self-splicing fitness (ln): -2.55

Record `CCAGAGCAAUAUUACGCUCA` . Reported self-splicing fitness (ln): -3.24

Record `AGCAAGCAAUAUUACGUACC` . Reported self-splicing fitness (ln): -0.796

Record `GUCAAGCAAUAUUACGGUUU` . Reported self-splicing fitness (ln): -2.48

Record `CCCAAGCAAUAUUACGGGCG` . Reported self-splicing fitness (ln): -3.29

Record `GUGAAGCAAUAUUACGUCGC` . Reported self-splicing fitness (ln): -2.77

Record `AGCUAGCAAUAUUACGGAUA` . Reported self-splicing fitness (ln): -2.55

Record `CGAAAGCAAUAUUACGCAGC` . Reported self-splicing fitness (ln): -3

Record `AGGUAGCAAUAUUACGUCCG` . Reported self-splicing fitness (ln): -0.127

Record `UAUUAGCAAUAUUACGGAUG` . Reported self-splicing fitness (ln): -0.629

Record `CGACAGCAAUAUUACGGUGU` . Reported self-splicing fitness (ln): -3.48

Record `GCGAAGCAAUAUUACGCAUU` . Reported self-splicing fitness (ln): -2.56

Record `UUAUAGCAAUAUUACGGGGG` . Reported self-splicing fitness (ln): -3.15

Record `AUUCAGCAAUAUUACGCAAC` . Reported self-splicing fitness (ln): -2.05

Record `GUAUAGCAAUAUUACGGGAU` . Reported self-splicing fitness (ln): -3.5

Record `UAAUAGCAAUAUUACGUAAU` . Reported self-splicing fitness (ln): -3.25

Record `UGCUAGCAAUAUUACGAAAC` . Reported self-splicing fitness (ln): -2.87

Record `UUGAAGCAAUAUUACGGUAA` . Reported self-splicing fitness (ln): -0.968

Record `AGGCAGCAAUAUUACGUGGG` . Reported self-splicing fitness (ln): -2.95

Record `UCUAAGCAAUAUUACGUUGG` . Reported self-splicing fitness (ln): -1.6

Record `UAAUAGCAAUAUUACGUAGA` . Reported self-splicing fitness (ln): -3.52

Record `GGGAAGCAAUAUUACGGAGG` . Reported self-splicing fitness (ln): -2.91

Record `CAGAAGCAAUAUUACGACUC` . Reported self-splicing fitness (ln): -0.803
